Target: T1, PDZD2_2, O15018
T1 sequence (O15018 329-429, limits assumed, looked up): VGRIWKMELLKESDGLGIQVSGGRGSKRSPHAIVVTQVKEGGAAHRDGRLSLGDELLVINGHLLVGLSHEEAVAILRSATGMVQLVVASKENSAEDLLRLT
Test: holdup assay
Set-up: key: below the threshold = too weak to quantify, mostly under pKd 3.1 to 4
Conditions: plain residues with an end cap or a label only (N-terminal biotin on a linker: ttds)
valueKind: pKd
Enter the number alone.

Notebook: DLDEEEDTHL [PODXL, O00592] , pKd read as 4

Notebook: SSIDLWETAL [SLC15A5, A6NIM6] , pKd read as 4.11

Notebook: SHSSKGETAV [FZD7, O75084] , pKd read as 4.09
